test system: K4 kissing-loop RNA reporter; experiment: apparent KD of K4 kissing-loop reporter; higher = weaker reporter binding; conditions: Eterna round: R107; input ligand: FMN 200 uM
Short version: apparent KD of K4 kissing-loop reporter at least 200 nM is true, less is false.

Ordered Residues	Assigned Class
UGUGAUGUUGUGAUGUUUAGUGUUGUUGGGCAGGAUAUUGUAGAGGCGAGAAGGGCUAGUGUGAUGUAUGAGUGAUGUUUGUAGU [kkollmullin]	false
UUUUUAAUCGCAGAUACCAGUCCAGAAUGAAUACUAUAGUGAUGUUAUAAUAAAGGGAAGGACCCUUGGCAGCUGUACUAUAUUU [AstrosSsTheB#6]	true
UUCUACGUGCAAGGAUAUCCAUACGCUGCUAAGCGGGUAGCGAUAUAUGGAGUGAUGUUCCAUGUAGGAGAAGGUGCACUGUCCU [Rieser]	false
GGAGAGCGAAAAGGAUAUGCGUCCGUCAAAAUUAUGUAGCGCGGAAAAUGGUAGUGAUGUUGCAAAGCAGAAGGUUUCAGAUGUA [theeternabot_sameState_KL_FMN_B_43]	true
CUGUACAUCUCGGCCGCCACUGACAUGAGUGAUGUUCAUGUACAUGAGUGAUGUUCAUGUUCGGCCAGGACCGGGAGGUGUGCAG [KL-SSTryp-B2 #analogue #double KL]	true

Confirm if apparent KD of K4 kissing-loop reporter reported for the sequence UUAUAUUUUAUAUUUAGUAGAGCUCUAGCUCGAGGACCGGUACGGCCGCCACUCGAGUGAUGUUCGAGUGGGUGAGCUCUACAUU [AK3 EXC Tryptophan A] is 200 nM or above.
false

Confirm if apparent KD of K4 kissing-loop reporter reported for the sequence GUAGACAGACUGCAAGCCUAGUCUACAGACUAGGAUAUCAGGAAACUGAGAAGGAGUCUAGUUGCAGUGAUGUUGCAAGAAUAAU [KL-SSFMN-A24] is 200 nM or above.
false

----------
tested on: K4 kissing-loop RNA reporter; assay: apparent KD of K4 kissing-loop reporter; higher = weaker reporter binding; conditions: Eterna round: R107; input ligand: none;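 further: bound reporter read as fluorescence of individual clusters on recovered sequencing chips by microscopy, with normalized cluster intensities fitted with a binding model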
Short version: apparent KD of K4 kissing-loop reporter at least 0.3 µM is t, less is f.

Ordered Residues	Assigned Class
UUUUUAUUCAGUGAUGUUGAAUUUAUAUCAGAGGAUAUGCAUAAAAGCAGAAGGCUGAAAUACUAUACUUUAAUAAAUUAUAUUU [JR_SSFMNA_Sub017]	t
UGAUACCAGACGGCCGCCACUUCCGCAAGUCAAAGACUUGCCAAGGGAAUCGUCCAGUGAUGUUGGAGGACCGGGUCUGGUAUCU [FiskerMod 4 - Jieux - Exclusion - Tryptophan B]	t
AAAAUUGCGGUCGAAAGAACUUCUUGCAUACGAGGACCGGUACGGCCGCCACUCGAGUCAAGUGAUGUUUGAUUUUCUAUUAUUA [JR_ExcTryptoA_Sub013]	f
GCAACAUUGGUAGGAUAUCAUUCUGAGUGAUGUUCAGGGUUCAGCUAACGAAAGUUAGUUGUACCAUGAGAAGGGCUAAUGUUGC [Omei KL FMN B SS A v5]	t
GCAGACACGCAGUGAUGUUGCGAAACGGAAGGAGCGCGUGAAAACGCAGGUAGGUCGCCGACACAUAAAUUAUAAUUUUGUUUGC [Arginine A K4 14]	f
UAUACACAGGGAGGAUAUGCCCACACAACAACCGAGUGAUGUUCGGACAAUACACAUAAUACACGGGCAGAAGGCCCACAUCACA [SS FNM B Tesla 1]	f

Confirm if apparent KD of K4 kissing-loop reporter reported for the sequence GUUACGCAUGGAAGGAGCGCUCUCAUAUUUAAUAACACAGUGAUGUUGUGAAUUUAUAUAAAGCAGGUAGGUCGCCAUGUGUAAC [Ex Arginine B K4 6] is 0.3 µM or above.
t

Confirm if apparent KD of K4 kissing-loop reporter reported for the sequence UCUGUUUCGAUGGAUACCAGUCGGCGAAUCACAGCUAUUAGCCUAGUGAUGUUAGGAUCGGACCCUUGGCAGCCAAUGGAUGCGG [theeternabot_sameState_KL_Theo_B_14] is 0.3 µM or above.
t

Confirm if apparent KD of K4 kissing-loop reporter reported for the sequence CCAUUCUUUUACGAUACCAGUCUAAUAUAUUUAAUCAAAACCCUCGCCGAGUGAUGUUCGGACCCUUGGCAGCGUCUGCGAGAGG [ettyxtkmullin] is 0.3 µM or above.
t

Confirm if apparent KD of K4 kissing-loop reporter reported for the sequence UGUCAUUGGUCGGCCGCCACUAGGACCGGGUAUAACCUAGUGAUGUUAGUGAGUACGGCCGCCACUAGGACCGGGACCGAUGACU [KL-SSTryp-B120 #DoubleAptamer] is 0.3 µM or above.
t

Confirm if apparent KD of K4 kissing-loop reporter reported for the sequence AAGCAGUCACUCGAAUCCAUCGAAGAUGGGCGAGGACCGGUACGGCCGCCACUCGGAGUGAUGUUCCGCAGACUGCAAAAUAAAA is 0.3 µM or above.
t

Confirm if apparent KD of K4 kissing-loop reporter reported for the sequence CCCGUACCAGUGAUGUUGGUAUGGUCUGAUACCAGUCUGUAGUCGGGCCCUUGGCAGCAGACCCUUGCCAAGGUGACGACUCCGG [Qu] is 0.3 µM or above.
f

----------
system: MS2 coat protein; assay: apparent KD of MS2 coat protein; designed switch direction (-1 OFF switch, 1 ON switch): -1; higher = weaker reporter binding; details: Eterna round: R95; input ligand: microRNA oligo, concentration not stated
Readout Type: apparent KD of MS2 coat protein (nM)
Number only, in nM; omit the unit.

> print(dat)
                           ordered.residues   val
1  GAUUGACAUGAGGAUCACCCAUGUGAGGAUAUCGGCUGGACCGUGUUGGCUUGGCUUUCGAGAAGGCGCAUAGG [Exclusion 1 V47] (puzzle: Exclusion 1)  42.6
2  GGUGGACAUGAGGAUCACCCAUGUGAGGAUAUCGGCUGGCUACUCGCUGACGGCUGCUCGAGAAGGCGCAUUGU [Exclusion 1 V88] (puzzle: Exclusion 1)  41.7

Provide measured apparent KD of MS2 coat protein value, entry: CCUAUGUGAGGAUAUGUCUGGUCUUCUUUUGUUUUUUACAGACAGAAGGCACAUGAGGAUCACCCAUGUCAGAC [Ex4 - 3 - 47] (puzzle: Exclusion 4)
17

Provide measured apparent KD of MS2 coat protein value, entry: AAGAAACAUGAGGAUCACCCAUGUGAGGAUAUGAUUAAGAAAAGAAAAGAAAGAAGAGUCAGAAGGCACAAAGG [salish99-ex1_r3_063] (puzzle: Exclusion 1)
48.8

Provide measured apparent KD of MS2 coat protein value, entry: CAGUACUGAGGAUAUACAUGAGGAUCACCCAUGUGUUCCAGCUAGGAAACUAGCAAAAGUAGAAGGCUGUACUG [salish99_ex3_r3_088] (puzzle: Exclusion 3)
17.9

----------
tested on: MS2 coat protein; test: apparent KD of MS2 coat protein; designed switch direction (-1 OFF switch, 1 ON switch): -1; higher = weaker reporter binding; conditions: Eterna round: R95; input ligand: microRNA oligo, concentration not stated
This section presents sequences with their documented apparent KD of MS2 coat protein values.
Number only, in µM; omit the unit.

Some sequences with recorded apparent KD of MS2 coat protein:
Ordered Residues	Value Unit	apparent KD of MS2 coat protein
GAUUAUGCGAGCUUUAGGGACAUGAGGAUCACCCAUGUUCGUCUUAUUAGUCUAGGUGCGCUAACAUACCUAAAUCU [JMF 50] (puzzle: Sensor v3, turn-off variant 1)	µM	0.0354
UAUAUGUGAGGAUAUCAGGUGUGCUAGCGUACUGGUACAUCUGAGAAGGCACAUGAGGAUCACCCAUGUUUCUU [JL-ex4-3.24 Brourd mod] (puzzle: Exclusion 4)	µM	0.0244
AAGUACCGUCACGAAAGUGAUGGUACAACAAGUAAAUGUACAUGAGGAUCACCCAUGUCCUCAAUUGCUCGUCUUAU [Sensor 3 - 60] (puzzle: Sensor v3, turn-off variant 2)	µM	0.202
AGGCAAUCAGGAUAUACAUGAGGAUCACCCAUGUGUACAAAGCACAUCCGAUCUAGAUGUAGAAGGGAUAUGCA [Usmabesobi] (puzzle: Exclusion 3)	µM	0.018
AAGAAACAUGAGGAUCACCCAUGUGAGGAUAUGAAAAAUAAAAGAAAAGAAAGAAUAAUCAGAAGGCACAAAGG [Mat - Mod of Hog D10] (puzzle: Exclusion 1)	µM	0.0373
GAUUAUGCGAGCUUUAGGGACAUGAGGAUCACCCAUGUUCGUCUUAUUGGUCUGAAUACACUAACAUACCUAAAUCU [JMF 11] (puzzle: Sensor v3, turn-off variant 1)	µM	0.0337
AACGAUCUAGGAUAUACAUGAGGAUCACCCAUGUAAGAGCUCAAACCGAGCUCCCUCUGUAGAAGGAGGUCAAA [Atquteuson] (puzzle: Exclusion 3)	µM	0.0485
AGUAGAUCUACGCUUGCGUGGAUCUGCAUUGCAAGUGUAACAUGAGGAUCACCCAUGUCCUCAUUUGCUCGUCUUAU [JL turnoff v2 99.02] (puzzle: Sensor v3, turn-off variant 2)	µM	0.277

Answer briefly: apparent KD of MS2 coat protein recorded on MS2 coat protein for AAGAAACAUGAGGAUCACCCAUGUGAGGAUAUGACUAAGAAAAGAAAAGAAAGAAGAUUCAGAAGGCACAAAGG [salish99-ex1_r3_062] (puzzle: Exclusion 1)
0.0423

Answer briefly: apparent KD of MS2 coat protein recorded on MS2 coat protein for AGUAUAGUCCAUGGCCGCAAGCUUUUUACUUGUCUUACCACAUGAGGAUCACCCAUGUGACAUGGGCACCUUAUGAU [Sensor v3, turn-off variant 2 (MOD of Oranla v.4)] (puzzle: Sensor v3, turn-off variant 2)
0.0343
